System: VDR homodimer (NR concentration 270 nM)
ASSAY: PBM binding z-score (relative to random genomic background probes); higher = stronger binding; sequences stand for … in GC…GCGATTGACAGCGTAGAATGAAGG
Reported PBM binding z-score values are given for each entry in this list.
TEST READOUT: PBM binding z-score

input_sequence=CCTTACGGGTCACGAGGTTATACCACGACGAGCG measured_result=2.24
input_sequence=ATCTCTAGGTAATGATAGTTCAGTGAATGCAAAT measured_result=0.644
input_sequence=GCTCGGAGGACAAGGTCAGAGCTTTGTCCGTAGA measured_result=0.705
input_sequence=ATGTCTAGGTAAGACTCAGTTCAGTGAAGAACGC measured_result=1.07
input_sequence=CATACAGGGTCAGCTAGGCCTGAGTAGGGACGGC measured_result=0.628
input_sequence=CCTAGCAGTCCAATCTGGGTCACTCAAGGCTTGA measured_result=0.187
input_sequence=TCGAGTAGGTGAGTCGGGGCATTCAGCCAACATA measured_result=0.0574
input_sequence=AATACAGGGTCACTAGGCCAGATTAGGTACGAAT measured_result=2.83
input_sequence=CCACCAAGGTGAACAAGGTCGTTGATTACTATTC measured_result=3.07
input_sequence=GCTCGGAGGACAACGTCAGAGCTTTGTCCGTAGA measured_result=-0.803
input_sequence=CTTGAAAGGTCGTGCTCAGGTGAGTATACCAAAC measured_result=1.03
input_sequence=CAAACTAGGTCACGGAAGGTCAAAGTCGAATGAC measured_result=3.53
input_sequence=TGGAGTAGGTTAGGGGCATTCAGAATGGCGTCGA measured_result=1.57
input_sequence=TCTTGTAGATCAACAGAGGTTAAGAAAGTGCGCT measured_result=0.274
input_sequence=CCGACTGGGGCAAAGGTTAGCATACTCAGTACGA measured_result=-0.381
input_sequence=GCGACTGGGGCAAAACAGGTTACCATAAGGTTGG measured_result=-0.526
input_sequence=TATCCTAGGTCATTGGGCCAGTATAGTACGCATC measured_result=1.65
input_sequence=CGTCCAAGGTCAAGGCCAGTGAAAGAGACTCGAA measured_result=1.61
input_sequence=CGTCATAGTTCAAGGTAACGTAACAGAAAGCAGC measured_result=0.917
input_sequence=TTATCAAGGTGAAGGTCGTTGATCCCTCTGTAGA measured_result=1.23
input_sequence=AGAATGAGGTTATACGTAGACCAGGGAAGAAAGT measured_result=0.999
input_sequence=CCTGACGGGTCACTCCAGGTTATAGCATCGGAGT measured_result=1.27
input_sequence=TCCTGTAGATCAAAGGTTAAGAAAGCCGAAGCCT measured_result=-0.182
input_sequence=TCTTGTAGATCAAAGGGTAAGAAAGCCGAAGCCT measured_result=-0.525
input_sequence=CTACGAAGGTGAACAAGGTCGTTGATTACTATTC measured_result=2.46
input_sequence=CCTAGGAGGACAACAGGAGGTCAGAGCTGCCAGA measured_result=1.4

====

Tested on: RARb:RXRa (NR concentration 270 nM, RXRa partner concentration 90 nM)
ASSAY: PBM binding z-score (relative to random genomic background probes); higher = stronger binding; sequences stand for … in GC…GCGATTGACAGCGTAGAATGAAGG
Label yes when PBM binding z-score is at or above 2; anything below gets no.

input_sequence=TCTAGTTGGTCAGAGGTCACACACTCGAAATGCG group_label=yes
input_sequence=TCATATAGGTGAACAGGTGAAAGTCCGTAAGTTA group_label=no
input_sequence=ACTAGCAGGCCAAGTTTGGATCACTCAAACAAAG group_label=no
input_sequence=AGTCAAAGTTCATTTAGGTAACGTAAGATATGCT group_label=yes
input_sequence=ATCGAAATGTCGAAGGTGAGTATACCCACCCGAA group_label=no
input_sequence=TCTTTTAGATCAAAGGTTAAGAAAGCCGAAGCCT group_label=yes
input_sequence=CGGACTGGGGCAAGGTTACCATAACGCACAGCCA group_label=no
input_sequence=GCTAGCAGGCCAGTTGGGTCACTCAATGACGGGC group_label=no
input_sequence=CCGACTGGGGCAGAAAGGTTACCATCCCATCCGG group_label=no
input_sequence=AGAGCGAGGGCACGCTGAGTTGATAGCAGAGTAG group_label=yes
input_sequence=AATACAGAGTCATCGTAGGCCAGAGTACGCACAG group_label=no
input_sequence=GTACCAAGGTGAATAGGTCGTTAATGAGTAGGCG group_label=no
